STUDY SYSTEM: G-protein coupled receptor 151 (Homo sapiens)
ASSAY NOTES: GPR151 activators, triplicate retest, confirmation, cell-based, PathHunter beta-arrestin, luminescence (AID 1508609)
TEST SETTINGS: GPR151 PathHunter beta-arrestin cells, 90 min, at 11.2 µM, stronger effect = higher value, % of EA-reagent control over plate median
Screen size: about 6,700 compounds; fewer than 10 were called active. A selection follows.
ENDPOINT: activation

According to the records, this compound Cc1ccc(S(=O)(=O)NCC(c2cccnc2)N2CCN(c3ccc(F)cc3)CC2)cc1 (stereo unspecified) displays activation of -0.45% (inactive)

According to the records, this compound CCOCCCNC(=O)NC1CCN(c2nc3ccccc3s2)CC1 displays activation of 0.63% (inactive)

According to the records, this compound CC1CCN(CC(=O)Nc2ccccc2Cl)CC1 displays activation of 0.1% (inactive)

According to the records, this compound Cc1ccc2c(c1)N(CC(=O)N1CCC(C)CC1)C(=O)c1cccnc1O2 displays activation of 0.11% (inactive)

According to the records, this compound CCOC(=O)c1sc2nc(SCC(=O)N(C)Cc3ccccc3)n(Cc3ccc4c(c3)OCO4)c(=O)c2c1C displays activation of -1.12% (inactive)

According to the records, this compound Cc1ccc(NC(=O)CCn2c(=O)oc3ccccc32)cc1Cl displays activation of 0.81% (inactive)

According to the records, this compound CCCN1C(=O)c2ccc(C(=O)Nc3ccc(C(C)=O)cc3)cc2C1=O displays activation of 0.09% (inactive)

According to the records, this compound COc1ccc(C(=O)COC(=O)C(Cc2ccccc2)NC(=O)c2ccco2)cc1 (stereo unspecified) displays activation of 0.8% (inactive)

According to the records, this compound CCOc1ccc(NC(=O)N2CCN(CC)CC2)cc1 displays activation of 0.34% (inactive)

According to the records, this compound O=C(N/N=C/c1cccc(Cl)c1Cl)c1cccs1 displays activation of -1.68% (inactive)

According to the records, this compound CCOC(=O)c1sc(NC(=O)CSc2ncccn2)c(C#N)c1C displays activation of -0.62% (inactive)
